# assay notes: HTB85 osteosarcoma cell growth inhibition, synergistic combos for chromothripsis tumors, BGB or cisplatin IC20 combos (AID 1671453);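 note: cells exposed for 96 hours before readout; 0% = vehicle DMSO and 100% = high DMSO killing control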
# setup conditions: HTB85 osteosarcoma cells, drug combinations, measured here: with BGB IC20, at 5 µM, stronger effect = higher value
assay metric: inhibition

Item: CN(N=O)C(=O)NC1C(O)OC(CO)C(O)C1O (stereo not drawn) | inhibition: -14.4%

Item: O=c1c(O)c(-c2ccc(O)c(O)c2)oc2cc(O)ccc12 | inhibition: 3.71%

Item: N=c1ccn2c(n1)O[C@H]1[C@H](O)[C@@H](CO)O[C@H]12 | inhibition: 23.6%

---

# tested system: Mitogen-activated protein kinase 7 (Homo sapiens) (UniProt Q13164)
# Sequence (Q13164 whole entry, looked up, the tested form may be a part): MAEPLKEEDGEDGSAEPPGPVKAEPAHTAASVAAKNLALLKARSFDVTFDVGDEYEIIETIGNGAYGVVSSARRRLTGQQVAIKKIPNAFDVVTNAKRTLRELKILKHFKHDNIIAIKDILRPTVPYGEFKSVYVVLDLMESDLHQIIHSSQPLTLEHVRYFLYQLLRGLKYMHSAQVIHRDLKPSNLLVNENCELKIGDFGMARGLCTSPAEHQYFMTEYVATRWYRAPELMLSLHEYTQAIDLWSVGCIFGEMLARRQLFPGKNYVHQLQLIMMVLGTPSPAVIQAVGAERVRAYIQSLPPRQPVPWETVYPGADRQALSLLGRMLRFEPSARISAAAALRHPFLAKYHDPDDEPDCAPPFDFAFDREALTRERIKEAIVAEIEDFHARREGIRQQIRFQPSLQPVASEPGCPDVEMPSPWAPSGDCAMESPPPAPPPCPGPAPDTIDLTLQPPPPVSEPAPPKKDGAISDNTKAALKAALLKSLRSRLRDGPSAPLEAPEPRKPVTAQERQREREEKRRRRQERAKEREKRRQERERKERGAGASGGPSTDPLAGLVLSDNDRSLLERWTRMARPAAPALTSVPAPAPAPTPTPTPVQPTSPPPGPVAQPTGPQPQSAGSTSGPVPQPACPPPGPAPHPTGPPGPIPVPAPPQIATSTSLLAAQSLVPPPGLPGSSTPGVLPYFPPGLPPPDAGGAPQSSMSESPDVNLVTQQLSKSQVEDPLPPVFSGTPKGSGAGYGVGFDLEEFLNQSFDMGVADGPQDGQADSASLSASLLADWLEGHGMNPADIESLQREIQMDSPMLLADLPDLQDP
# assay notes: ERK5 transactivation activators in reporter cells, primary screen, cell-based, HTS (AID 1508626);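 note: luciferase driven by Gal4-ERK5 fusion binding five Gal4 sites before minimal TATA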
# setup conditions: HeLa Gal4-ERK5 transactivation, 18 h, at 5 µM, stronger effect = higher value
Calls of active or inactive are those of the source.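 Rule for the calls: active = luciferase signal above three times the same-plate solvent-only control wells; inactive = the rest.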
assay metric: luciferase signal

Item: CC(C)=CCc1c2c(c(O)c3c(=O)c(O)c(-c4ccccc4)oc13)C=CC(C)(C)O2 | luciferase signal: 64 AU (inactive)

Item: COc1ccc2ccc(=O)oc2c1 | luciferase signal: 44 AU (inactive)

Item: COc1ccc(-c2cc(=O)c3c(O)c(OC)c(O[C@@H]4O[C@H](CO[C@@H]5O[C@@H](C)[C@H](O)[C@@H](O)[C@H]5O)[C@@H](O)[C@H](O)[C@H]4O)cc3o2)cc1 | luciferase signal: 76 AU (inactive)

Item: CC(=O)[C@@]1(O)CC[C@H]2[C@@H]3C=C(Cl)C4=CC(=O)[C@@H]5C[C@@H]5[C@]4(C)[C@H]3CC[C@@]21C | luciferase signal: 32 AU (inactive)

---

# assay notes: inhibitors of polyQ protein aggregation (AID 1604)
# setup conditions: polyglutamine-induced protein aggregation inhibition assay; stronger effect = higher value; concentration not given here
I'd appreciate it if you could label each record using inhibition of aggregation and these ranges: bottom end (below 10%), midrange (10% to below 70%), top end (70% or more)

q: Textbook exercise: identify the category of the compound given here, Cc1cc(NS(=O)(=O)c2ccc(N)cc2)no1 , according to its measured value.
a: midrange

q: Textbook exercise: identify the category of the compound given here, COc1cc(S(C)=O)ccc1-c1nc2ncccc2[nH]1 (configuration not stated) , according to its measured value.
a: bottom end

q: Textbook exercise: identify the category of the compound given here, CN(C(=O)CN(CCO)CC(=O)N(C)C(C)(C)Cc1ccccc1)C(C)(C)Cc1ccccc1 , according to its measured value.
a: midrange

q: Textbook exercise: identify the category of the compound given here, O=C1CN(/N=C/c2ccc([N+](=O)[O-])o2)C(=O)N1 , according to its measured value.
a: midrange

q: Textbook exercise: identify the category of the compound given here, COc1ccc(/C=C/c2cc(O)cc(O[C@@H]3O[C@H](CO)[C@@H](O)[C@H](O)[C@H]3O)c2)cc1O , according to its measured value.
a: midrange

q: Textbook exercise: identify the category of the compound given here, CN(C)C(=O)C(CCN1CCC(O)(c2ccc(Cl)cc2)CC1)(c1ccccc1)c1ccccc1 , according to its measured value.
a: bottom end

q: Textbook exercise: identify the category of the compound given here, CC(C)NCC(O)COc1ccc(CC(N)=O)cc1 (configuration not stated) , according to its measured value.
a: bottom end

q: Textbook exercise: identify the category of the compound given here, NC(N)=O , according to its measured value.
a: midrange

q: Textbook exercise: identify the category of the compound given here, Cn1c(=O)[nH]c2ncn(C)c2c1=O , according to its measured value.
a: midrange

q: Textbook exercise: identify the category of the compound given here, O=C1C=CC(=C(c2ccc(O)cc2)c2ccc(O)cc2)C=C1 , according to its measured value.
a: top end

q: Textbook exercise: identify the category of the compound given here, CC(=O)N[C@@H](CC(C)C)C(=O)O , according to its measured value.
a: top end
